- procedure details: Ichthyotoxicity in Carassius auratus
- Assay type: organism-based
- particulars: in vivo

{"compound": "C=C1CC(=O)N[C@@H](C)C(=O)N(C)[C@@H](CCc2ccccc2)C(=O)NCC(=O)O[C@@H](/C(C)=C/C(C)=C/C(C)(C)C)[C@@H]1C [ANTILLATOXIN B]", "LC50": "1000 nM"}
